Target: UniProt:Q8ILY1
Sequence (Q8ILY1 entry or part of it): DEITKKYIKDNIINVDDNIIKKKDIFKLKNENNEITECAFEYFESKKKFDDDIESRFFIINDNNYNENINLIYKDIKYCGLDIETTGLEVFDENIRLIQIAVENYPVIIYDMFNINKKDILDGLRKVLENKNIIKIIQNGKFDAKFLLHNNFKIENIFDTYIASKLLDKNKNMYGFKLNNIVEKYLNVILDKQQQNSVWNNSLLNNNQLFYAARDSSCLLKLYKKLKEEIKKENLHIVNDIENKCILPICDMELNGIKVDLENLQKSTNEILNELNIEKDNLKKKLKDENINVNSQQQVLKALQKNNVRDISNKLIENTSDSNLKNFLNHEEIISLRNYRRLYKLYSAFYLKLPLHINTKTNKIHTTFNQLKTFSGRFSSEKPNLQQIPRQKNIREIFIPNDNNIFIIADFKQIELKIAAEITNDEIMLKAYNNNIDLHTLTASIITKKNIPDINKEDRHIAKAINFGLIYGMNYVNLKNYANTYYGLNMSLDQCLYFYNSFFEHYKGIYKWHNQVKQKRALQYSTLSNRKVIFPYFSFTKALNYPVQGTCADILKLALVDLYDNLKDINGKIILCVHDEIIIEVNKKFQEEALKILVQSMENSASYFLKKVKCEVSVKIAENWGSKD
Assay: Fluorescence-based high-throughput DNA polymerase assay (molecular beacon), primary screen and dose-response;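 further: test concentration in µM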
Type: biochemical
Conditions: DRC-2; concentration 20; 90'
% inhibition ApPOL 90' reference
API: value field is a number in %; no unit string.

# annotated cases, reported % inhibition ApPOL 90' shown
Entry Smiles | % inhibition ApPOL 90' (%)
Cc1cc(C)nc(Nc2nc(CC(=O)Nc3nc(-c4ccco4)cs3)cs2)n1 | 60
CCCCCc1c2c(cc(O)c1C(=O)O)OC(=O)c1c(cc(OC)cc1C(=O)CCCC)O2 | 41
O=C1c2ccccc2C(=O)c2c1oc1c3c(ccc21)OCN(C1CCCC1)C3 | 60
O=C(O)c1cc([N+](=O)[O-])c(N2CCN(c3cccc(C(F)(F)F)c3)CC2)c([N+](=O)[O-])c1 | 21
CCCN1COc2ccc3c(=O)c(-c4ccccc4)coc3c2C1 | 39
Cc1ccnc(NS(=O)(=O)c2ccc(-n3cccc3)cc2)n1 | 59
O=[N+]([O-])c1ccc(SCc2ccco2)c2cccnc12 | 62
O=C(Nc1c2c(nn1-c1ccccc1)CSC2)c1ccco1 | 57

Let's switch to this molecule now.
Fill in: % inhibition ApPOL 90' on UniProt:Q8ILY1, entry `CCc1ccccc1NC(=O)c1ccc(-c2ncccc2NC(C)=O)cc1`
52

###

Target: bacteriophage T4 DNA polymerase (Enterobacteria phage T4, UniProt P04415)
Construct: made in house
Sequence (P04415 whole entry): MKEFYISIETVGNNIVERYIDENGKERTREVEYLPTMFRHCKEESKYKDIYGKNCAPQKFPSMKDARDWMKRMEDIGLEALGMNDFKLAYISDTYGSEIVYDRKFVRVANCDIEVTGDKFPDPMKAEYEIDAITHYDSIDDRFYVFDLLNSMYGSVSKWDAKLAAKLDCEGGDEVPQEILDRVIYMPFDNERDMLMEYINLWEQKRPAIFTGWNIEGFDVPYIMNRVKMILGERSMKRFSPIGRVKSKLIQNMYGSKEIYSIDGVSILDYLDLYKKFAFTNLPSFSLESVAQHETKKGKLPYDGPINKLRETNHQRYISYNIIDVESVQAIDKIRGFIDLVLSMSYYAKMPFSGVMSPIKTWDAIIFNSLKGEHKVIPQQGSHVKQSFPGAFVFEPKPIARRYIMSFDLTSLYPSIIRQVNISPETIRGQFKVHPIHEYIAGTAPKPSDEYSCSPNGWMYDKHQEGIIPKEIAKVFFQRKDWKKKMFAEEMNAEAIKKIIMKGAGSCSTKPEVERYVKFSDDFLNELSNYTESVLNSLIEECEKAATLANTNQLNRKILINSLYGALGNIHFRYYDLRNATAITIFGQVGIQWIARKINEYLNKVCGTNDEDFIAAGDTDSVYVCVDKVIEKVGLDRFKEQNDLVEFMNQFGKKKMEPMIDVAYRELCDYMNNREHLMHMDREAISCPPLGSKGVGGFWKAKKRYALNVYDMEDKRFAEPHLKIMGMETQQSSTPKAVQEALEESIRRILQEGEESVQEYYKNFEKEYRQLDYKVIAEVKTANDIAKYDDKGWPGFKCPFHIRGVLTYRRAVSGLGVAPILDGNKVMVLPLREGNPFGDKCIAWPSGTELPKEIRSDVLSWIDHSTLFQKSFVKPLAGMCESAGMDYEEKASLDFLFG
Assay: Counter-screen against bacteriophage T4 DNA polymerase
Format: biochemical
Conditions: DRC-1; read at 130'; concentration 2.5
Procedure: Codon-optimized, exonuclease-deficient Pf-apPOL was overexpressed in E. coli BL21 (DE3) and purified as described. The protein was dialysed against two, 1-liter changes of 20 mM Tris-HCl (pH 8.0), 400 mM NaCl, and 20% glycerol. […] Each compound was tested in a dose-response format to determine IC50 values. […] T4 DNA polymerase can be produced in large quantities, and is in the same family (B-family) as the replicative human DNA polymerases (α, δ, and ε)[20].
Measure: % inhibition T4 130' 2.5 (%)
API: value field is a number in %; no unit string.

Compound | System Under Test | Endpoint Result
O=C(c1ccccc1)N1CCc2c(nc3cc(-c4ccccc4)[nH]n3c2=O)C1 | bacteriophage T4 DNA polymerase (Enterobacteria phage T4, UniProt P04415) | -6.3102

Quick one: give measured % inhibition T4 130' 2.5 for Cc1ccc(N2CCC(NC(=O)Cc3cccs3)C2=O)cc1C (stereo not drawn)
-5.326

Quick one: give measured % inhibition T4 130' 2.5 for `N#Cc1c(O)nc(N2CCCCC2)nc1-c1ccc2c(c1)OCO2`
-4.596

Quick one: give measured % inhibition T4 130' 2.5 for `Cc1cc2[nH]c(C(=O)Nc3ccc(F)cc3)c(CN3CCOCC3)c2s1`
-1.799

Quick one: give measured % inhibition T4 130' 2.5 for `COc1ccccc1CC(=O)N1CCc2c(nc3cc(-c4ccccc4Cl)[nH]n3c2=O)C1`
-4

Quick one: give measured % inhibition T4 130' 2.5 for C#CC(C=CC)OC(=O)c1ccccc1C(=O)O (stereo not drawn)
3.358

Quick one: give measured % inhibition T4 130' 2.5 for `Cc1cccc(-c2noc(C(=O)NNC(=O)C(Cl)(Cl)Cl)n2)c1`
-1.03

Quick one: give measured % inhibition T4 130' 2.5 for `Cc1nc(C)c2c(n1)N(CC1CCCCC1)C(=O)CC2`
-8.748

Quick one: give measured % inhibition T4 130' 2.5 for `CCCc1ccc(Oc2coc3cc(OC)ccc3c2=O)cc1`
-0.4639

Quick one: give measured % inhibition T4 130' 2.5 for COc1ccc(C2CC(c3ccc(Cl)cc3Cl)Nc3nc(N)nn32)cc1OC (stereo not drawn)
7

Quick one: give measured % inhibition T4 130' 2.5 for O=C1CSC2=NC3=C(CCc4ccccc43)C(c3cccs3)N12 (stereo not drawn)
7.352

Quick one: give measured % inhibition T4 130' 2.5 for `O=C(CCc1csc(NC(=O)Nc2ccccc2)n1)Nc1nc2ccccc2s1`
-0.4187
